- MEASUREMENT_TARGET: rat GPR55 (Rattus norvegicus, UniProt F1MAK4)
- PROTOCOL_SUMMARY: Ca2+ mobilization assay (FLIPR, Calcium5 dye), rat GPR55
- CONDITION_PARAMETERS: HEK293 cells co-expressing PK-tagged rat GPR55 and EA-tagged beta-arrestin; intracellular calcium increase
pEC50: −log10 of the molar value.
VALUE_TYPE: pEC50

Suppose we examine the compound C[C@@H](Nc1cnc(-c2cncc(C(O)C(F)(F)F)c2)cn1)c1ccc(F)cc1 (single isomer, unassigned) [Example 32a] ; what pEC50 value has been reported?
≥ 7.30

Suppose we examine the compound C[C@@H](Nc1cnc(-c2cnc3oc(=O)n(C)c3c2)cn1)c1ccc(F)cc1 ; what pEC50 value has been reported?
≥ 5.30

Suppose we examine the compound C[C@@H](Nc1ncc(-c2cncc(CC(F)(F)F)c2)nn1)c1ccc(F)cc1 ; what pEC50 value has been reported?
≥ 5.30

Suppose we examine the compound C[C@@H](Nc1ncc(-c2ccc3oc(=O)n(C)c3c2)nn1)c1ccc(F)c(F)c1 ; what pEC50 value has been reported?
≥ 6.00

###

- MEASUREMENT_TARGET: rat GPR55 (Rattus norvegicus, UniProt F1MAK4)
- Construct: expressed in transfected cells; host or cells: HEK293 (human embryonic kidney) cells
- Sequence (F1MAK4 1-319): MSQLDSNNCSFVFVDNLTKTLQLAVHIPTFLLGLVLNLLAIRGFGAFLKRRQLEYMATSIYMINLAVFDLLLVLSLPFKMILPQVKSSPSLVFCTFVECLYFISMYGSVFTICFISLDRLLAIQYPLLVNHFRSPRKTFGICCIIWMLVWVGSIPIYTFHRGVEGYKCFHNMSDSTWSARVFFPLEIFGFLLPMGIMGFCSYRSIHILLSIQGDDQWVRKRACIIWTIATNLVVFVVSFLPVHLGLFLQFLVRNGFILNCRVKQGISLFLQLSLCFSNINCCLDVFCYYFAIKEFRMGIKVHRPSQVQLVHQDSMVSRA
- PROTOCOL_SUMMARY: Ca2+ mobilization assay (FLIPR, Calcium5 dye), rat GPR55
- Type: cell-based
- CONDITION_PARAMETERS: HEK293 cells co-expressing PK-tagged rat GPR55 and EA-tagged beta-arrestin; intracellular calcium increase
VALUE_TYPE: EC50

Suppose we examine the compound C=Cc1cncc(-c2cnc(N[C@H](C)c3ccc(F)cc3)cn2)c1 ; what EC50 value has been reported?
≤ 1000 nM

Suppose we examine the compound CCc1cncc(-c2cnc(N[C@H](C)c3ccc(F)cc3)cn2)c1 ; what EC50 value has been reported?
≤ 1000 nM

Suppose we examine the compound CCc1cncc(-c2ccc(N[C@@H]3CCc4ccccc43)nc2)c1 ; what EC50 value has been reported?
≤ 5000 nM

Suppose we examine the compound C[C@@H](Nc1ccc(-c2cncc(S(C)(=N)=O)c2)cn1)c1ccc(F)cc1 (mixture of isomers) [Example 27] ; what EC50 value has been reported?
≤ 50 nM

Suppose we examine the compound C[C@@H](Nc1ccc(-c2ccc3oc(=O)[nH]c3c2)cn1)c1ccc(F)cc1 ; what EC50 value has been reported?
≤ 5000 nM

Suppose we examine the compound C[C@@H](Nc1cnc(-c2cncc(CC(F)F)c2)cn1)c1ccc(F)cc1 ; what EC50 value has been reported?
≤ 50 nM

Suppose we examine the compound CN=S(C)(=O)c1cncc(-c2ccc(N[C@H](C)c3ccc(F)cc3)nc2)c1 (mixture of isomers) [Example 30] ; what EC50 value has been reported?
≤ 50 nM

Suppose we examine the compound Cc1cnc(C)c(-c2ccc(N[C@H](C)c3ccc(F)cc3)nc2)c1 ; what EC50 value has been reported?
≤ 1000 nM

Suppose we examine the compound C[C@@H](Nc1ccc(-c2ccc3oc(=O)n(C)c3c2)cn1)c1ccc(F)cc1 ; what EC50 value has been reported?
≤ 1000 nM

Suppose we examine the compound C[C@@H](Nc1ncc(-c2cncc(S(C)(=O)=O)c2)nn1)c1ccc(F)cc1 ; what EC50 value has been reported?
≤ 1000 nM

Suppose we examine the compound CCc1cncc(-c2ccc(N[C@H](C)c3ccccc3)nc2)c1 ; what EC50 value has been reported?
≤ 1000 nM

Suppose we examine the compound C[C@@H](Nc1cnc(-c2cncc(S(C)(=O)=O)c2)cn1)c1ccc(F)cc1 ; what EC50 value has been reported?
≤ 50 nM

Suppose we examine the compound C[C@@H](Nc1cnc(-c2cncc(OC(F)F)c2)cn1)c1ccc(F)cc1 ; what EC50 value has been reported?
≤ 1000 nM

Suppose we examine the compound C[C@@H](Nc1ncc(-c2ccc3oc(=O)[nH]c3c2)nn1)c1ccc(F)cc1 ; what EC50 value has been reported?
≤ 1000 nM

Suppose we examine the compound C[C@@H](Nc1ncc(-c2ccc3ocnc3c2)nn1)c1ccc(F)cc1 ; what EC50 value has been reported?
≤ 1000 nM

Suppose we examine the compound C[C@@H](Nc1cnc(-c2cncc(OC(F)(F)F)c2)cn1)c1ccc(F)cc1 ; what EC50 value has been reported?
≤ 5000 nM

Suppose we examine the compound CCn1c(=O)oc2ccc(-c3cnc(N[C@H](C)c4ccc(F)cc4)nn3)cc21 ; what EC50 value has been reported?
≤ 1000 nM

Suppose we examine the compound C[C@@H](Nc1ncc(-c2ccc3oc(=O)n(C)c3c2)nn1)c1ccc(F)cc1F ; what EC50 value has been reported?
≤ 1000 nM
